Sourced from ChEMBL document CHEMBL4004877

assay: Cytotoxicity against LPS-stimulated mouse RAW264.7 cells assessed as cell viability at 10 ug/ml after 24 hrs by MTT assay relative to control; assay type: cell-based; details: LPS-stimulated RAW264.7 cells, read-out: Activity
outcome measure: viability at 24 h, 10 ug/ml (%)
# output: bare number, implied unit %

// lookup viability at 24 h, 10 ug/ml for COc1ccc(/C=C/C(=O)c2ccc(OC)c(OC)c2)cc1OC
60.4

Fill blank: measured viability at 24 h, 10 ug/ml of the compound COc1ccc(CCCc2ccc(OC)c(OC)c2)cc1O is ____.
51.9

Which viability at 24 h, 10 ug/ml is listed for COc1ccc(C(=O)/C=C/c2ccc3c(c2)OCO3)c(OC)c1 ?
66.2

Any idea what viability at 24 h, 10 ug/ml was measured for COc1ccc(C(=O)CCc2ccc(OC)c(OC)c2OC)c(O)c1 ?
94

Item COc1ccc(C(=O)/C=C/c2cccc(OC)c2OC)c(O)c1 has what recorded viability at 24 h, 10 ug/ml?
60.3

Form field: reported viability at 24 h, 10 ug/ml of COc1ccc(CCCc2ccc(OC)c(OC)c2)c(O)c1
44.5

Recorded viability at 24 h, 10 ug/ml of COc1ccc(C(=O)CCc2cc(OC)ccc2OC)c(O)c1 , please.
92.4

Need viability at 24 h, 10 ug/ml, item COc1ccc(CCC(=O)c2cccc(O)c2)c(OC)c1
74.8

What value of viability at 24 h, 10 ug/ml has been reported for the following compound? COc1ccc(C(=O)/C=C/c2ccc3c(c2)OCO3)c(O)c1
72

Find the recorded viability at 24 h, 10 ug/ml belonging to COc1cc(CCCc2ccc3c(c2)OCO3)ccc1O and report it.
58.2

For the compound COc1cc(C(=O)/C=C/c2ccc3c(c2)OCO3)ccc1O , what viability at 24 h, 10 ug/ml is on record?
72.7

// query viability at 24 h, 10 ug/ml value for entry COc1ccc(CCC(=O)c2ccc(OC)cc2O)cc1
88

I would be grateful if you could share the reported viability at 24 h, 10 ug/ml for COc1ccc(CCC(=O)c2ccc(OC)c(OC)c2)cc1OC .
95.3

Consider the compound COc1cc(C(=O)CCc2ccc3c(c2)OCO3)ccc1O and give its measured viability at 24 h, 10 ug/ml.
89

# query: viability at 24 h, 10 ug/ml of entry COc1ccc(CCCc2ccc(OC)c(OC)c2)cc1
95.1

GET /values?readout=viability at 24 h, 10 ug/ml&item= COc1ccc(CCCc2ccc(OC)c(OC)c2)cc1OC
94.9

For the compound COc1ccc(CCCc2cccc(OC)c2OC)c(O)c1 , what viability at 24 h, 10 ug/ml is on record?
63

# query: viability at 24 h, 10 ug/ml of entry COc1cc(CCCc2cccc(OC)c2OC)ccc1O
68.9

Which viability at 24 h, 10 ug/ml is listed for COc1ccc(C(=O)CCc2ccc3c(c2)OCO3)c(O)c1 ?
94.4

# viability at 24 h, 10 ug/ml lookup, item COc1cccc(CCC(=O)c2cccc(O)c2)c1OC
91.4

Look up viability at 24 h, 10 ug/ml for this compound: COc1ccc(/C=C/C(=O)c2ccc(O)c(OC)c2)cc1
62.3

Entry under review: COc1ccc(OC)c(CCC(=O)c2cccc(O)c2)c1 . Reported viability at 24 h, 10 ug/ml?
93.6

Which viability at 24 h, 10 ug/ml is listed for COc1ccc(CCC(=O)c2ccc(OC)c(OC)c2)cc1 ?
90.6

Consider the compound shown here: COc1ccc(CCCc2ccc(OC)cc2O)cc1 What is its recorded viability at 24 h, 10 ug/ml?
73.8

Need viability at 24 h, 10 ug/ml of COc1cc(C(=O)CCc2cccc(OC)c2OC)ccc1O , thanks.
90.5

----------
assay: Cytotoxicity against LPS-stimulated mouse RAW264.7 cells assessed as cell viability at 5 ug/ml after 24 hrs by MTT assay relative to control; assay type: cell-based; settings: LPS-stimulated RAW264.7 cells, read-out: Activity
outcome measure: viability at 24 h, 5 ug/ml (%)
Unit % implied. Number only.

Dear colleague, I am looking for the recorded viability at 24 h, 5 ug/ml of the following molecule: COc1ccc(OC)c(CCCc2cccc(O)c2)c1
93.5

viability at 24 h, 5 ug/ml lookup needed for COc1ccc(C(=O)/C=C/c2cc(OC)ccc2OC)c(O)c1 , thanks.
71.1

Find the recorded viability at 24 h, 5 ug/ml belonging to COc1cc(CCC(=O)c2cccc(O)c2)ccc1O and report it.
96.1

Would you mind telling me what viability at 24 h, 5 ug/ml value was observed for COc1ccc(OC)c(/C=C/C(=O)c2cccc(O)c2)c1 ?
67.3

I am curious: what viability at 24 h, 5 ug/ml value has been reported for COc1cc(C(=O)CCc2ccc3c(c2)OCO3)ccc1O ?
92

Which viability at 24 h, 5 ug/ml reading was recorded for the molecule COc1cc(CCCc2cccc(O)c2)ccc1O ?
97.7

viability at 24 h, 5 ug/ml for COc1ccc(CCCc2cc(OC)ccc2OC)c(O)c1 ?
98.5

Please report the recorded viability at 24 h, 5 ug/ml for COc1ccc(C(=O)CCc2ccc3c(c2)OCO3)c(O)c1 .
96.2

Name the reported viability at 24 h, 5 ug/ml value associated with the molecule COc1ccc(C(=O)CCc2cccc(OC)c2OC)c(O)c1
92.7

Please report the recorded viability at 24 h, 5 ug/ml for COc1ccc(C(=O)CCc2ccc(OC)c(OC)c2OC)c(O)c1 .
94.8

Sample COc1ccc(C(=O)/C=C/c2ccc(OC)c(OC)c2)c(O)c1 — what was its viability at 24 h, 5 ug/ml?
73.9

What measured viability at 24 h, 5 ug/ml goes with COc1cc(C(=O)/C=C/c2ccc3c(c2)OCO3)ccc1O ?
81.1

For the molecule COc1ccc(/C=C/C(=O)c2ccc(O)c(OC)c2)cc1 , what viability at 24 h, 5 ug/ml is on record?
82.9

Suppose we examine the molecule COc1ccc(C(=O)/C=C/c2ccc(OC)c(OC)c2OC)c(O)c1 ; what viability at 24 h, 5 ug/ml value has been reported?
72.5

viability at 24 h, 5 ug/ml for COc1ccc(CCCc2ccc3c(c2)OCO3)c(OC)c1 ?
97.2

I would be grateful if you could share the reported viability at 24 h, 5 ug/ml for COc1ccc(OC)c(CCC(=O)c2cccc(O)c2)c1 .
97.5

Field request: viability at 24 h, 5 ug/ml | item: COc1ccc(CCCc2cccc(OC)c2OC)c(O)c1
95.2

Recorded viability at 24 h, 5 ug/ml of COc1ccc(/C=C/C(=O)c2ccc(OC)cc2O)cc1 , please.
75.2

// viability at 24 h, 5 ug/ml lookup, key: COc1ccc(/C=C/C(=O)c2ccc(OC)c(OC)c2)cc1
78.9

Would you mind telling me what viability at 24 h, 5 ug/ml value was observed for COc1cccc(/C=C/C(=O)c2cccc(O)c2)c1OC ?
57.8

Need viability at 24 h, 5 ug/ml of COc1ccc(CCCc2ccc(OC)c(OC)c2)cc1O , thanks.
86.2

Suppose we examine the molecule COc1cccc(CCC(=O)c2cccc(O)c2)c1OC ; what viability at 24 h, 5 ug/ml value has been reported?
93.4

Quick one: viability at 24 h, 5 ug/ml for COc1ccc(CCCc2ccc(OC)c(OC)c2)c(O)c1 ?
88.9

// returns reported viability at 24 h, 5 ug/ml for input COc1ccc(/C=C/C(=O)c2cccc(O)c2)cc1
63.3

Given the entry COc1ccc(C(=O)/C=C/c2cccc(OC)c2OC)c(O)c1 , report its measured viability at 24 h, 5 ug/ml.
69.7

----------
Hi there, I'd appreciate the recorded inhibition at 5 µg/mL for every entry that follows.
test system: RAW264.7; assay: Antiinflammatory activity in mouse RAW264.7 cells assessed as inhibition of LPS induced iNOS-dependent nitric oxide production at 5 ug/ml after 24 hrs by Griess assay relative to control; assay type: functional; conditions: RAW264.7, 24 h
Give just the number in %; leave the unit off.

Lab request: please report inhibition at 5 µg/mL under test system RAW264.7 for COc1cc(CCCc2cccc(O)c2)ccc1O
18.1

Enter reported inhibition at 5 µg/mL observed with RAW264.7 for COc1ccc(CCCc2cc(OC)ccc2OC)c(O)c1
36.4

For RAW264.7, provide inhibition at 5 µg/mL of COc1cc(CCCc2cccc(OC)c2OC)ccc1O please.
60.7

# query: inhibition at 5 µg/mL | item O=C(CCc1ccc2c(c1)OCO2)c1ccc(O)cc1 | system: RAW264.7
24.8

Provide the documented inhibition at 5 µg/mL with RAW264.7 as the system for COc1cc(C(=O)/C=C/c2ccc3c(c2)OCO3)ccc1O
49.1

// lookup inhibition at 5 µg/mL | system=RAW264.7 | key= COc1ccc(OC)c(/C=C/C(=O)c2cccc(O)c2)c1
52.4

Look up inhibition at 5 µg/mL with RAW264.7 for this molecule: COc1ccc(CCCc2ccc(OC)c(OC)c2)cc1O
57.4

Provide the documented inhibition at 5 µg/mL with RAW264.7 as the system for COc1cc(C(=O)CCc2ccc3c(c2)OCO3)ccc1O
32.2

API: value(readout= inhibition at 5 µg/mL, system= RAW264.7, query= COc1ccc(CCC(=O)c2cccc(O)c2)c(OC)c1 )
25.4

Lab note: need inhibition at 5 µg/mL for COc1ccc(/C=C/C(=O)c2cccc(O)c2)cc1OC on RAW264.7, anyone have it?
3.5

Requested read-out inhibition at 5 µg/mL, target or system RAW264.7, entry COc1ccc(CCC(=O)c2ccc(OC)c(OC)c2)cc1O
17.3

Tell me reported inhibition at 5 µg/mL for COc1ccc(CCCc2ccc3c(c2)OCO3)c(OC)c1 , tested with RAW264.7.
28

API: value(readout=inhibition at 5 µg/mL, system=RAW264.7) for record COc1ccc(CCCc2ccc(OC)cc2OC)c(O)c1
35.2

Lab note: need inhibition at 5 µg/mL with RAW264.7 for entry COc1cc(CCC(=O)c2cccc(O)c2)ccc1O , please look it up.
23.2

Short answer please: inhibition at 5 µg/mL, RAW264.7, entry COc1ccc(C(=O)/C=C/c2cccc(OC)c2OC)c(O)c1
55.3

// lookup inhibition at 5 µg/mL | system=RAW264.7 | key= COc1ccc(CCCc2cccc(O)c2)cc1
40.1

Could you share what inhibition at 5 µg/mL was measured for COc1ccc(CCCc2ccc(OC)c(OC)c2OC)c(O)c1 , tested on RAW264.7?
56.8

Test system RAW264.7; read-out inhibition at 5 µg/mL; what value for COc1ccc(C(=O)CCc2ccc(OC)cc2OC)c(O)c1 ?
9

I'm curious: which inhibition at 5 µg/mL was measured for COc1ccc(C(=O)/C=C/c2cc(OC)ccc2OC)c(O)c1 tested on RAW264.7?
6.1

Provide value of inhibition at 5 µg/mL for this record tested with RAW264.7: COc1ccc(C(=O)/C=C/c2ccc(OC)cc2OC)c(O)c1
12.2

// lookup inhibition at 5 µg/mL | system=RAW264.7 | key= COc1ccc(C(=O)CCc2ccc3c(c2)OCO3)c(O)c1
14.1

Field: inhibition at 5 µg/mL (RAW264.7). Entry: COc1ccc(CCC(=O)c2cccc(O)c2)cc1OC
46.2

So what inhibition at 5 µg/mL did COc1ccc(CCCc2ccc3c(c2)OCO3)c(O)c1 get with RAW264.7?
54.1

Given the entry COc1ccc(C(=O)CCc2ccc(OC)c(OC)c2)c(O)c1 , what inhibition at 5 µg/mL was observed with RAW264.7?
38.3

# get_value(readout= inhibition at 5 µg/mL, system= RAW264.7) for COc1ccc(C(=O)/C=C/c2ccc3c(c2)OCO3)c(OC)c1
52

Field: inhibition at 5 µg/mL (RAW264.7). Entry: COc1ccc(CCCc2ccc(OC)c(OC)c2)cc1OC
26.1
